Could you please report measured protein stability index for the items listed next?
B1: C1orf137 (parent)
chain: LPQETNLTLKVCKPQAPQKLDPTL

Variants of: B1
measurementDescription: protein stability index of a GFP-peptide fusion (GPS, HEK-293T) (PSI 1-6); higher = more stable;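 further: lentivirally expressed fusions sorted by FACS into six bins by GFP to DsRed ratio, PSI derived from sequencing read proportions per bin multiplied by bin number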
settings: c terminus: a fixed tail appended
Give bare numbers.

[[record]]
variantdescriptor = "T23F"
experimentalvalue = 2.98

[[record]]
variantdescriptor = "T5H"
experimentalvalue = 4

[[record]]
variantdescriptor = "L9C"
experimentalvalue = 3.91

[[record]]
variantdescriptor = "K13A"
experimentalvalue = 3.98

[[record]]
variantdescriptor = "N6Y"
experimentalvalue = 2.99

[[record]]
variantdescriptor = "Q15L"
experimentalvalue = 2.96

[[record]]
variantdescriptor = "K10R"
experimentalvalue = 3.03

[[record]]
variantdescriptor = "Q15I"
experimentalvalue = 3.03

[[record]]
variantdescriptor = "P14M"
experimentalvalue = 3.08

[[record]]
variantdescriptor = "Q3K"
experimentalvalue = 3.96


# map each variant to its protein stability index
1. T23C
2. L7Y

1. 3.89
2. 3.89
